Tested on: PC-3 prostate
assayOverview: NCI-60 one-dose screen, 48 h (100 = growth as untreated, 0 = no growth, -100 = all killed)
measurementSetup: 10 µM unless noted
Experimental: Growth inhibition of the PC-3 human tumor cell line is measured as a screen for anti-cancer activity. Cells are grown in 96 well plates and exposed to the test compound for 48 hours. Compounds are tested at a single concentration, which is 10^-5 M for most compounds. The reported endpoint is percent growth (GI% or GIPRCNT), where numbers from 0 - 100% represent growth inhibition, and numbers from -100% - 0 represent cell death. For example, a value of 40 represents 60% growth inhibition. […]
Compounds without any hit were thinned out: in the full panel of roughly 83,000, 20% have a hit.
Decide using growth: a value greater than or equal to 60% is class 1, a smaller one is class 0.

The examples below pair each entry with its known result.
CCc1cccc2c3c(sc12)C(c1ccc(F)cc1)C(C#N)=C(/N=C/c1ccc(Cl)cc1)O3 (stereo not given) = class 0
CC(O)c1cccc(/C(N)=N/C(N)=N/c2nc3ccccc3s2)c1 (stereo not given) = class 1
CCCCSC1=C(Cl)CN(c2ccccc2)C1=O = class 1
COc1cc(C(=O)c2cc(C(C)=O)c3ccc(C)cn23)cc(OC)c1OC = class 0

// query Hi team, for N/C(=N\C(N)=N\c1nc2ccccc2s1)c1ccc(Cl)cc1 , is the recorded growth at or above 60%?
// result class 0

// query Hi team, for O=C1/C(=C/C=C/c2ccco2)SC(=S)N1Cc1ccccc1 , is the recorded growth at or above 60%?
// result class 1

// query Hi team, for N#Cc1cnc2ccc(-c3cnc4n[nH]nc4c3)cc2c1N1CCc2cc(F)c(Cl)cc21 , is the recorded growth at or above 60%?
// result class 0

// query Hi team, for O=C(CSc1nnc(-c2ccc(Cl)cc2)n1-c1ccccc1)Nc1cccc(F)c1 , is the recorded growth at or above 60%?
// result class 1

// query Hi team, for N#Cc1nc(-c2ccc(Cl)cc2)oc1N1CCC(S(=O)(=O)N2CCOCC2)CC1 , is the recorded growth at or above 60%?
// result class 1

// query Hi team, for COC(=O)c1cccc(NC2=C(Cl)C(=O)C(C)=C(C)C2=O)c1 , is the recorded growth at or above 60%?
// result class 1

###

System: HS 578T breast
assayOverview: NCI-60 one-dose screen, 48 h (100 = growth as untreated, 0 = no growth, -100 = all killed)
measurementSetup: 10 µM unless noted
About 83,000 compounds went through this panel and 20% of them were active in at least one assay; those are over-represented in the sample as a whole.
Quick list: growth per entry.
State the answer as a number, implicitly in %.

Worked cases, answers included:
C=CCSC1=NC2C(N(CC)C(=O)N2CC)N1/N=C/C=C/c1ccccc1OC (stereo not drawn) = 82.4
Clc1cccc(/C=N/Nc2nc(N/N=C/c3cccc(Cl)c3)nc(N3CCOCC3)n2)c1 = 67.5
COc1ccc([C@@H]2C(=O)N(c3cc(OC)c(OC)c(OC)c3)[C@H]2c2ccc(OC)c(O)c2)cc1 = 14.9
CNC(=O)c1cc(-n2ccc3cc(NC(=O)Nc4ccc(N5CCN(C)CC5)c(C(F)(F)F)c4)ccc32)ccn1 = 67
Cc1ccc2c(n1)C(=O)C(Cl)=C(Nc1cccc(C)c1C)C2=O = -13
COc1ccc(OC)c(NC(=O)CCCCCCNC(=O)C(O)(O)C(F)(F)F)c1 = 49.7

// query Read the entry CC(O)c1cccc(/C(N)=N/C(N)=N/c2nc3ccccc3s2)c1 (stereo not drawn) and write its reported growth.
// result 91.9

// query Read the entry Cc1csc(/N=C(N)/N=C(\N)c2cccnc2)n1 and write its reported growth.
// result 78.8

###

Quick list: growth per entry.
System: SW-620 colon
assayOverview: NCI-60 one-dose screen, 48 h (100 = growth as untreated, 0 = no growth, -100 = all killed)
measurementSetup: 10 µM unless noted
The panel holds about 83,000 compounds, 20% with a hit somewhere; the sample as a whole holds those more often. Active and inactive are the calls of the source. How the source made its calls: active means growth percent below 10; inactive means the rest.

// query Read the entry O=C(CCCCCCNC(=O)C(O)(O)C(F)(F)F)Nc1nc2ccccc2s1 and write its reported growth.
// result 4.75% (active)

// query Read the entry Cc1[nH]c(C(=O)Nc2ccccc2OCc2cccc(C(=O)NC3CCNC3)c2)c(Cl)c1Cl (stereo not drawn) and write its reported growth.
// result -66.3% (active)

// query Read the entry C=C(C)[C@@H]1CC[C@]2(COP(=O)(OCC)OCC)CC[C@]3(C)[C@H](CC[C@@H]4[C@@]5(C)CC[C@H](OP(=O)(OCC)OCC)C(C)(C)[C@@H]5CC[C@]43C)[C@@H]12 and write its reported growth.
// result 38.4% (inactive)

// query Read the entry O=C1/C(=C/C=C/c2ccco2)SC(=S)N1Cc1ccccc1 and write its reported growth.
// result 94.2% (inactive)

###

Test system: NCI-H226 lung
assayOverview: NCI-60 one-dose screen, 48 h (100 = growth as untreated, 0 = no growth, -100 = all killed)
measurementSetup: 10 µM unless noted
About 83,000 compounds went through this panel and 20% of them were active in at least one assay; those are over-represented in the sample as a whole.
measurementLabel: growth (%)
State the answer as a number, implicitly in %.

Worked cases, answers included:
Nc1ccc(Nc2ncnc3sc4c(c23)CCN(Cc2ccccc2)C4)cc1 = 91.5
CC1(C)CC[C@]23CC[C@]4(C)[C@H](CC[C@@H]5[C@@]6(C)CC[C@H](NCO)C(C)(C)[C@@H]6CC[C@]54C)[C@H]2[C@H]1OC3 = 97.2
COc1ccc(/C=N/NC(=O)c2c(N)nn(C)c2Nc2ccccc2)cc1Oc1ccccc1 = 91.9

Then there is this compound:
// query Please indicate recorded growth of CC(C)NC(=O)c1cc(-c2ccc(NC(=O)Nc3ccc(F)c(C(F)(F)F)c3)cc2)nc2cccnc12 measured with NCI-H226 lung.
// result 94.8

###

Quick list: growth per entry.
Test system: UO-31 renal
assayOverview: NCI-60 one-dose screen, 48 h (100 = growth as untreated, 0 = no growth, -100 = all killed)
measurementSetup: 10 µM unless noted
This is part of a sample that, as a whole, favours compounds with a hit. Of some 83,000 tested, about 20% had one in any assay.
State the answer as a number, implicitly in %.

Worked cases, answers included:
CC(C)(C)OC(=O)Nc1ccc(-c2cccc(Oc3ccc4nnc(Cl)n4n3)c2)cc1 = 67.6
O=C(CSc1nc2ccccc2c(=O)n1-c1ccccc1)Nc1ccc(S(=O)(=O)Nc2nccs2)cc1 = 97.2

// query Read the entry Cc1ccc2c(n1)C(=O)C(Cl)=C(Nc1ccccc1C(=O)OC(C)(C)C)C2=O and write its reported growth.
// result -62.7

// query Read the entry C=C(C)[C@@H]1CC[C@]2(C(=O)N3CCN(C)CC3)CC[C@]3(C)[C@H](CC[C@@H]4[C@@]5(C)CC[C@H](OP(=O)(OCC)OCC)C(C)(C)[C@@H]5CC[C@]43C)[C@@H]12 and write its reported growth.
// result 60.8

// query Read the entry COc1ccc2[nH]cc(/C=N/Nc3ccnc4cc(Cl)ccc34)c2c1 and write its reported growth.
// result -100

###

Test system: KM12 colon
assayOverview: NCI-60 one-dose screen, 48 h
measurementSetup: 10 µM unless noted
The panel holds about 83,000 compounds, 20% with a hit somewhere; the sample as a whole holds those more often. Active and inactive are the calls of the source. The calls were made as follows: active = growth percent below 10; inactive = the rest.
Select the matching outcome among active, inactive

The examples below pair each entry with its known result.
CC(=C(c1ccc(OCCN2CCCC2)cc1)c1ccc(OCCN2CCCC2)cc1)c1ccc(Cl)cc1 = active
O=C(O)c1ccc(-n2c(=O)n(-c3cccc(C(F)(F)F)c3)c(=O)c3cc(-c4ccc(F)cc4F)ccc32)cc1 = active

// query Query: recorded result category for Oc1[nH]c2ccc(Cl)cc2c1N=Nc1nc(N=Nc2c(O)[nH]c3ccc(Cl)cc23)nc(N2CCCCC2)n1 in this test
// result inactive

// query Query: recorded result category for CCOP(=O)(OCC)OC[C@]12CCC(C)(C)C[C@H]1C1=CC[C@@H]3[C@@]4(C)CC[C@H](OP(=O)(OCC)OCC)C(C)(C)[C@@H]4CC[C@@]3(C)[C@]1(C)CC2 in this test
// result inactive

// query Query: recorded result category for O=C(N/N=C\c1ccc(F)cc1)c1ccc2nc(-c3ccc(Br)cc3)[nH]c2c1 in this test
// result inactive

// query Query: recorded result category for Nc1ncc(-c2ccc3ncnc(NCc4ccccc4)c3c2)cn1 in this test
// result inactive

###

Tested on: NCI-H322M lung
assayOverview: NCI-60 one-dose screen, 48 h
measurementSetup: 10 µM unless noted
This is part of a sample that, as a whole, favours compounds with a hit. Of some 83,000 tested, about 20% had one in any assay. Calls of active or inactive are those of the source. The calls were made as follows: active = growth percent below 10; inactive = the rest.
Select the matching outcome among t (active), f (inactive)

The examples below pair each entry with its known result.
Cn1cc(-c2nnc(N)nc2-c2c[nH]c3ccc(F)cc23)c2cc(Br)ccc21 = f
C[C@@H]1OCC2(CCN(c3cnc(C(=O)Nc4cc(F)cc5cccnc45)cn3)CC2)[C@@H]1N = f
Clc1cccc(/C=N/Nc2nc(N/N=C/c3cccc(Cl)c3)nc(N3CCCCC3)n2)c1 = f
C#CCOc1ccccc1C(OC(=O)c1ccccc1)C(=O)NC(C)(C)C(C)(C)C (stereo not given) = f
CC(C)NC(=O)c1cc(-c2ccc(NC(=O)Nc3ccc(F)c(C(F)(F)F)c3)cc2)nc2cccnc12 = f
Nc1nc(=O)n([C@H]2C[C@H](O)[C@@H](CO)O2)cc1C=O = f
Cn1ncc2ncc(-c3ccc4ncc(C#N)c(N5CCc6cc(F)c(Cl)cc65)c4c3)cc21 = f
CCCC/C(=C\c1ccc(O)c(O)c1)C(=O)NC(Cc1ccccc1)C(=O)C(=O)NCCc1ccc(OC)cc1 (stereo not given) = f

// query Query: recorded result category for NC(=O)c1c(NC(=O)c2ccc(C(F)(F)F)cc2)sc2c1CCC(=O)C2 in this test
// result f

// query Query: recorded result category for COc1ccc(/C(=N\N=C(N)N)c2ccc(Cl)cc2)cc1OC in this test
// result f

// query Query: recorded result category for O=S(=O)(NCCCNc1nccc(-c2[nH]c(-c3ccccc3)nc2-c2ccc(F)c(O)c2)n1)c1ccccc1 in this test
// result f
